# test method notes: Hepatocyte stability assay, mouse
# Type: in vitro ADME
# condition label: mouse, hepatocytes, Hepatocyte stability T½
readout: log10 of half-life at 10 μM (log10 of the value in min)
Answers are given as log10 of half-life at 10 μM in min.

Entry under test: C=C(Cc1noc(C2(c3ccc(Br)cc3)CC2)n1)C(=O)O . Its log10 of half-life at 10 μM was 0.70

Entry under test: C=C(Cc1nc(CCCCCCC(C)(F)F)no1)C(=O)O . Its log10 of half-life at 10 μM was 1.43

Entry under test: C=C(Cc1nc(Cc2ccc3ccccc3c2)no1)C(=O)O . Its log10 of half-life at 10 μM was 1.40

Entry under test: C=C(Cc1nc(C2(c3ccc(C(F)(F)F)cc3)CC2)no1)C(=O)O . Its log10 of half-life at 10 μM was 1.61

Entry under test: C=C(Cc1nc(-c2ccc(C3(CCC)CC3)cc2)no1)C(=O)O . Its log10 of half-life at 10 μM was 1.63

Entry under test: C=C(Cc1nc(CCCCCCCCC(F)(F)F)no1)C(=O)O . Its log10 of half-life at 10 μM was 0.78

Entry under test: C=C(Cc1nc(C(F)(F)c2ccc(C)c(Cl)c2)no1)C(=O)O . Its log10 of half-life at 10 μM was 1.28

Entry under test: C=C(Cc1nc(C2(c3ccc(OC(F)(F)C(F)F)cc3)CC2)no1)C(=O)O . Its log10 of half-life at 10 μM was 1.76

Entry under test: C=C(Cc1nc(C(C)CCCCCC)no1)C(=O)O (stereo not drawn) . Its log10 of half-life at 10 μM was 1.00

Entry under test: C=C(Cc1nc(C2(c3cc(Cl)cc(Cl)c3)CC2)no1)C(=O)O . Its log10 of half-life at 10 μM was 1.11

Entry under test: C=C(Cc1nc(C(F)(F)c2ccc(C(F)(F)F)cc2)no1)C(=O)O . Its log10 of half-life at 10 μM was 1.92

Entry under test: C=C(Cc1nc(Cc2ccc(C3CCCC3)cc2)no1)C(=O)O . Its log10 of half-life at 10 μM was 1.08

Entry under test: C=C(Cc1nc(C(F)(F)c2ccc(OC(F)(F)F)cc2)no1)C(=O)O . Its log10 of half-life at 10 μM was 1.82

Entry under test: C=C(Cc1nc(C2(c3cc(F)c(Cl)c(F)c3)CC2)no1)C(=O)O . Its log10 of half-life at 10 μM was 0.90

Entry under test: C=C(Cc1noc(C(F)(F)c2ccc(C(F)(F)F)cc2)n1)C(=O)O . Its log10 of half-life at 10 μM was 1.18

Entry under test: C/C(=C\c1nc(C2(c3ccc(Br)cc3)CC2)no1)C(=O)O . Its log10 of half-life at 10 μM was 0.70

Entry under test: C=C(Cc1nc(-c2ccc(OCCCC(F)(F)F)cc2)no1)C(=O)O . Its log10 of half-life at 10 μM was 0.90

Entry under test: C=C(Cc1nc(C2(c3ccc(F)cc3)CC2)no1)C(=O)O . Its log10 of half-life at 10 μM was 1.64

Entry under test: C=C(Cc1nc(CCCCCCCC)no1)C(=O)O . Its log10 of half-life at 10 μM was 1.08

Entry under test: C=C(Cc1nc(-c2ccc(Cl)cc2)no1)C(=O)O . Its log10 of half-life at 10 μM was 1.69

Entry under test: C=C(Cc1nc([C@@H](C)CCCCCC)no1)C(=O)O . Its log10 of half-life at 10 μM was 1.08

Entry under test: C=C(Cc1nc(C(F)(F)c2ccc(I)cc2)no1)C(=O)O . Its log10 of half-life at 10 μM was 1.30

====

Give hepatocyte CLint at 10 μM for every item shown.
# test method notes: Hepatocyte stability assay, human
# Type: in vitro ADME
# condition label: human, hepatocytes, Hepatocyte stability Clint
# output: bare number, implied unit µL/min/1e6 cells

Entry under test: C=C(Cc1nc(Cc2ccc(CCC)cc2)no1)C(=O)O [Example 70] . Its hepatocyte CLint at 10 μM was 13

Entry under test: C=C(Cc1nc(-c2ccc(Cl)cc2)c(CCCC)o1)C(=O)O [Example 109] . Its hepatocyte CLint at 10 μM was 20

Entry under test: C=C(Cc1nc(-c2ccc(C(F)(F)CCC)cc2)no1)C(=O)O [Example 98] . Its hepatocyte CLint at 10 μM was 70

Entry under test: C=C(Cc1nc(CCc2ccc(Cl)cc2)no1)C(=O)O [Example 5] . Its hepatocyte CLint at 10 μM was 8

Entry under test: C=C(Cc1noc(C(F)(F)c2ccc(C(F)(F)F)cc2)n1)C(=O)O [Example 97] . Its hepatocyte CLint at 10 μM was 13

Entry under test: C=C(Cc1nc(CCCCCCC(F)(F)C(F)(F)F)no1)C(=O)O [Example 17] . Its hepatocyte CLint at 10 μM was 42

Entry under test: C=C(Cc1nc(-c2ccc(C3(CCC)CC3)cc2)no1)C(=O)O [Example 72] . Its hepatocyte CLint at 10 μM was 69

Entry under test: C=C(Cc1nc(Cc2ccc3ccccc3c2)no1)C(=O)O [Example 9] . Its hepatocyte CLint at 10 μM was 7

Entry under test: C=C(Cc1nc(-c2ccc(C(F)(F)CCCC)cc2)no1)C(=O)O [Example 79] . Its hepatocyte CLint at 10 μM was 147

Entry under test: C=C(Cc1nc(C2CCCCCCC2)no1)C(=O)O [Example 63] . Its hepatocyte CLint at 10 μM was 8

Entry under test: C=C(Cc1nc(-c2ccc(OCCCC)cc2)no1)C(=O)O [Example 61] . Its hepatocyte CLint at 10 μM was 52

Entry under test: C=C(Cc1nc(C2(c3ccc(OC4CCC4)cc3)CC2)no1)C(=O)O [Example 111] . Its hepatocyte CLint at 10 μM was 23

Entry under test: C=C(Cc1ccc(CCCCCCCC)nn1)C(=O)O [Example 116] . Its hepatocyte CLint at 10 μM was 60

Entry under test: C=C(Cc1nc(CCCCCCC)no1)C(=O)O [Example 6] . Its hepatocyte CLint at 10 μM was 38

Entry under test: C=C(Cc1nc(C(C)(C)CCCCC)no1)C(=O)O [Example 12] . Its hepatocyte CLint at 10 μM was 16

Entry under test: C=C(Cc1nc(C2(c3ccc(Cl)c(F)c3)CC2)no1)C(=O)O [Example 52] . Its hepatocyte CLint at 10 μM was 24

====

# test method notes: Hepatocyte stability assay, mouse
# Type: in vitro ADME
# condition label: mouse, hepatocytes, Hepatocyte stability Clint
# Method: Defrosted cryo-preserved hepatocytes (viability >70%) were used to determine the metabolic stability of a compound via calculation of intrinsic clearance (CIint; a measure of the removal of a compound from the liver in the absence of blood flow and cell binding). […] The metabolic stability in hepatocytes assay involves a time-dependent reaction using both positive and negative controls. […] 80 μL of clear supernatant was removed and mixed with 80 μL of deionised water before being analysed by LC-MS/MS. […]
Give hepatocyte CLint at 10 μM for every item shown.
# output: bare number, implied unit µL/min/1e6 cells

Entry under test: C=C(Cc1nc(-c2ccc(Cl)cc2)c(CCCC)o1)C(=O)O . Its hepatocyte CLint at 10 μM was 61

Entry under test: C=C(Cc1nc(-c2ccc(CCCCC(F)(F)F)cc2)no1)C(=O)O . Its hepatocyte CLint at 10 μM was 480

Entry under test: C=C(Cc1nc(C2(c3ccc(Cl)c(F)c3)CC2)no1)C(=O)O . Its hepatocyte CLint at 10 μM was 134

Entry under test: C=C(Cc1nc(C2(c3ccc(OC4CCC4)cc3)CC2)no1)C(=O)O . Its hepatocyte CLint at 10 μM was 382

====

Give log10(half-life at 10 μM) for every item shown.
# test method notes: Hepatocyte stability assay, mouse
# Format: in vitro ADME
# condition label: mouse, hepatocytes, Hepatocyte stability T½
Answers are given as log10 of half-life at 10 μM in min.

Entry under test: C=C(Cc1nc(Cc2ccc(CCC)cc2)no1)C(=O)O . Its log10(half-life at 10 μM) was 1.41

Entry under test: C=C(Cc1nc(CCCCCCC)no1)C(=O)O . Its log10(half-life at 10 μM) was 0.95

Entry under test: C=C(Cc1nc(C(F)(F)c2ccc(SC(F)(F)F)cc2)no1)C(=O)O . Its log10(half-life at 10 μM) was 1.23

Entry under test: C=C(Cc1nc(CCc2ccc(Cl)cc2)no1)C(=O)O . Its log10(half-life at 10 μM) was 1.60

Entry under test: C=C(Cc1nc(C(F)(F)c2ccc(Cl)cc2)no1)C(=O)O . Its log10(half-life at 10 μM) was 1.67

Entry under test: C=C(Cc1nc(C(F)(F)c2cc(Cl)c(F)c(Cl)c2)no1)C(=O)O . Its log10(half-life at 10 μM) was 1.53

Entry under test: C=C(Cc1nc(C2(c3ccc(S(F)(F)(F)(F)F)cc3)CC2)no1)C(=O)O . Its log10(half-life at 10 μM) was 2.28

Entry under test: C=C(Cc1nc(-c2ccc(Cl)cc2)c(CCCC)o1)C(=O)O . Its log10(half-life at 10 μM) was 1.45

Entry under test: C=C(Cc1nc([C@H](C)CCCCCC)no1)C(=O)O . Its log10(half-life at 10 μM) was 1.30

Entry under test: C=C(Cc1nc(C(F)(F)c2ccc(S(F)(F)(F)(F)F)cc2)no1)C(=O)O . Its log10(half-life at 10 μM) was 1.43

Entry under test: C=C(Cc1noc(C(F)(F)c2ccc(Br)cc2)n1)C(=O)O . Its log10(half-life at 10 μM) was 1.11

Entry under test: C=C(Cc1nc(C2(c3ccc(C(F)(F)F)cc3)CC2)co1)C(=O)O . Its log10(half-life at 10 μM) was 1.20

Entry under test: C=C(Cc1nc(Cc2ccc(OC(F)(F)C(F)F)cc2)no1)C(=O)O . Its log10(half-life at 10 μM) was 1.26

Entry under test: C=C(Cc1nc(Cc2ccc(Cl)c(Cl)c2)no1)C(=O)O . Its log10(half-life at 10 μM) was 1.86

Entry under test: C=C(Cc1nc(C2(c3ccc(C4CCCC4)cc3)CC2)no1)C(=O)O . Its log10(half-life at 10 μM) was 1.18

Origin of values: patent US12617762B2
